Molecular target: UniProt P11229
Sequence (P11229 whole entry): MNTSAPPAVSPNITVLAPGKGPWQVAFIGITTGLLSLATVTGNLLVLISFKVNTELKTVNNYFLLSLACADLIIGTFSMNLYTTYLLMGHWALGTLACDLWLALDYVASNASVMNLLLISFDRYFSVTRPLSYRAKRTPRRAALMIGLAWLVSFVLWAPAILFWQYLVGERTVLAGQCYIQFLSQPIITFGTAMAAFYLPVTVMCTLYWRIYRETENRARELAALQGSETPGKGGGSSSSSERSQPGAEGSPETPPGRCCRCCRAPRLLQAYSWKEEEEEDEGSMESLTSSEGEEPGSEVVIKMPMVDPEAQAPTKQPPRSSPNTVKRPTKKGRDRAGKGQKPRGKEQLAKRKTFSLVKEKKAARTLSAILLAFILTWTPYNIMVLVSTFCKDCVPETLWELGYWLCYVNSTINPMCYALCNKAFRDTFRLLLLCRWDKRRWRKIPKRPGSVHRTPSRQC
Assay: M1 GTPγS binding assay
Format: biochemical
parameter.measured: EC50 (nM)
Return type: number; implicit unit nM.

Solved entries:
CCOCC[C@H]1C[C@H]2CC[C@@H](C1)N2C[C@@H](C)Cn1ncc2ccccc21	20
CCCO[C@H]1C[C@H]2CC[C@@H](C1)N2C[C@@H](C)Cn1ncc2ccccc21 [Compound 319s]	200

stdin: Answer with the recorded EC50 of `COCC[C@H]1C[C@H]2CC[C@@H](C1)N2C[C@@H](C)Cn1ncc2ccc(OC)cc21` only.
stdout: 39.8

stdin: Answer with the recorded EC50 of `CCOCC[C@H]1C[C@H]2CC[C@@H](C1)N2C[C@@H](C)Cn1ncc2ccc(C)cc21` only.
stdout: 6.31

stdin: Answer with the recorded EC50 of `Cc1cccc2cnn(C[C@H](C)CN3[C@@H]4CC[C@H]3C[C@@H](OCC3CC3)C4)c12` only.
stdout: 100

* * *

Biological target: human M2 muscarinic acetylcholine receptor (Homo sapiens (Human), UniProt P08172)
Sequence (P08172 whole entry): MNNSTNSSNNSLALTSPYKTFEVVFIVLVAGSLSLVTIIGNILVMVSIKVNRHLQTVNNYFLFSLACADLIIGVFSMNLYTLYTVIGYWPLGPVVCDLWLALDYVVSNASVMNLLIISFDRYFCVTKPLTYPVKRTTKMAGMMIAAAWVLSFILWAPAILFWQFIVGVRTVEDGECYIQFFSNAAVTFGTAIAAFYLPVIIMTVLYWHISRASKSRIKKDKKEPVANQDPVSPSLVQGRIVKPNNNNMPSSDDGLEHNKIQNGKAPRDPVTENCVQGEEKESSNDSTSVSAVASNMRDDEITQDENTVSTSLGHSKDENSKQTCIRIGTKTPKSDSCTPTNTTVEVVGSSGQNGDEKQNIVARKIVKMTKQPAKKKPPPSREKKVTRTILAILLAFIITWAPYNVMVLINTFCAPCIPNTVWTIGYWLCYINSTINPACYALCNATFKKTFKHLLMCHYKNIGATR
Assay: R-SAT (Receptor Selection and Amplification) assay, M2
Format: cell-based
Conditions: read-out: M2 EFF % AVG
Label true (1) when Emax is at or above 70%; otherwise label false (0).

Observe how each entry below is paired with its result.
C[C@H](CN1[C@@H]2CC[C@H]1C[C@@H](OC1CCCC1)C2)Cn1ncc2ccccc21 [Compound 314s]	true (1)
CCCO[C@H]1C[C@H]2CC[C@@H](C1)N2C[C@@H](C)Cn1ncc2ccccc21 [Compound 319s]	true (1)
CCOCC[C@H]1C[C@H]2CC[C@@H](C1)N2C[C@@H](C)Cn1ncc2ccccc21	false (0)

stdin: Please indicate if the recorded Emax for `C[C@H](CN1[C@@H]2CC[C@H]1C[C@@H](OCC1CC1)C2)Cn1ncc2ccc(F)cc21` meets or exceeds 70%.
stdout: true (1)

stdin: Please indicate if the recorded Emax for `CCOCC[C@H]1C[C@H]2CC[C@@H](C1)N2C[C@@H](C)Cn1ncc2ccc(C)cc21` meets or exceeds 70%.
stdout: false (0)

stdin: Please indicate if the recorded Emax for COCC[C@H]1C[C@H]2CC[C@@H](C1)N2C[C@@H](C)Cn1ncc2ccccc21 [Compound 303S] meets or exceeds 70%.
stdout: true (1)

stdin: Please indicate if the recorded Emax for C[C@H](CN1[C@@H]2CC[C@H]1C[C@@H](OCC1CC1)C2)Cn1ncc2ccccc21 [Compound 302S] meets or exceeds 70%.
stdout: true (1)

stdin: Please indicate if the recorded Emax for C#CCO[C@H]1C[C@H]2CC[C@@H](C1)N2C[C@@H](C)Cn1ncc2ccccc21 [Compound 318s] meets or exceeds 70%.
stdout: true (1)

stdin: Please indicate if the recorded Emax for C[C@H](CN1[C@@H]2CC[C@H]1C[C@@H](OCC1CC1)C2)Cn1ncc2ccc(CO)cc21 [Compound 310s] meets or exceeds 70%.
stdout: false (0)

stdin: Please indicate if the recorded Emax for `COCC[C@H]1C[C@H]2CC[C@@H](C1)N2C[C@@H](C)Cn1ncc2ccc(OC)cc21` meets or exceeds 70%.
stdout: true (1)

stdin: Please indicate if the recorded Emax for `Cc1ccc2cnn(C[C@H](C)CN3[C@@H]4CC[C@H]3C[C@@H](OCC3CC3)C4)c2c1` meets or exceeds 70%.
stdout: true (1)

stdin: Please indicate if the recorded Emax for `C=CCO[C@H]1C[C@H]2CC[C@@H](C1)N2C[C@@H](C)Cn1ncc2ccccc21` meets or exceeds 70%.
stdout: true (1)

stdin: Please indicate if the recorded Emax for `Cc1nn(C[C@H](C)CN2[C@@H]3CC[C@H]2C[C@@H](OCC2CC2)C3)c2ccccc12` meets or exceeds 70%.
stdout: true (1)

stdin: Please indicate if the recorded Emax for `C=CCO[C@H]1C[C@H]2CC[C@@H](C1)N2C[C@@H](C)Cn1ncc2ccc(F)cc21` meets or exceeds 70%.
stdout: true (1)

stdin: Please indicate if the recorded Emax for `COc1ccc2cnn(C[C@H](C)CN3[C@@H]4CC[C@H]3C[C@@H](OCC3CC3)C4)c2c1` meets or exceeds 70%.
stdout: false (0)

stdin: Please indicate if the recorded Emax for `C[C@H](CN1[C@@H]2CC[C@H]1C[C@@H](OCC1CCC1)C2)Cn1ncc2ccccc21` meets or exceeds 70%.
stdout: false (0)

* * *

// reported M3 PEC50 AVG for each item listed
Target: human M3 muscarinic acetylcholine receptor (Homo sapiens (Human))
Sequence (P20309 whole entry): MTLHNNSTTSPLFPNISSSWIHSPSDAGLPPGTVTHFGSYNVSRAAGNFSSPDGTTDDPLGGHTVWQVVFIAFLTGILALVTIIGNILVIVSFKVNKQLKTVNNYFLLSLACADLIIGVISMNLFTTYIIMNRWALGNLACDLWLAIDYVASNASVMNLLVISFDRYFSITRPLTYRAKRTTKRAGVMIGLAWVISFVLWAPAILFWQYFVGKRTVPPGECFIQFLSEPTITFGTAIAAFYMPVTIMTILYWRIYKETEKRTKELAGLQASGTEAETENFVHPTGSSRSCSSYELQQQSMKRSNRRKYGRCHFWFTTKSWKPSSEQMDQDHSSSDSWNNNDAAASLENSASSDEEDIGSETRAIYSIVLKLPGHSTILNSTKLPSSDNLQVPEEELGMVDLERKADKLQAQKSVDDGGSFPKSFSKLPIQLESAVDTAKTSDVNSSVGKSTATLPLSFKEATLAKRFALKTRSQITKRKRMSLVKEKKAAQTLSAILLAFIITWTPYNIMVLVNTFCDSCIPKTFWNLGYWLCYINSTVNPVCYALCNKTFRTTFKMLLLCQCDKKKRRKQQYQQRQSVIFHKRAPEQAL
Test: R-SAT (Receptor Selection and Amplification) assay, M3
Assay type: cell-based
Settings: R-SAT, NIH-3T3 cells
Response field accepts a number only; no unit should be typed.

CC(C)(C)OC(=O)N1C2CC[C@H]1C[C@@H](O)C2 [Comparative compound 2, reference compound]	7.1
COCC[C@H]1C[C@H]2CC[C@@H](C1)N2C[C@@H](C)Cn1ncc2ccc(F)cc21	6.9
C=CCO[C@H]1C[C@H]2CC[C@@H](C1)N2C[C@@H](C)Cn1ncc2ccc(F)cc21	6.3

stdin: Answer with the recorded M3 PEC50 AVG of `C[C@H](CN1[C@@H]2CC[C@H]1C[C@@H](OCC1CC1)C2)Cn1ncc2ccc(F)cc21` only.
stdout: 7.3

stdin: Answer with the recorded M3 PEC50 AVG of C[C@H](CN1[C@@H]2CC[C@H]1C[C@@H](OCC1CC1)C2)Cn1ncc2ccccc21 [Compound 302S] only.
stdout: 6.8

stdin: Answer with the recorded M3 PEC50 AVG of `Cc1ccc2cnn(C[C@H](C)CN3[C@@H]4CC[C@H]3C[C@@H](OCC3CC3)C4)c2c1` only.
stdout: 7.4

* * *

Assay: Ocular pharmacokinetic evaluation in rabbits
Format: in vivo, New Zealand White rabbits
Conditions: male, New Zealand White, rabbit, retina (against plasma), topical, 35 μl of 0.126% per eye; most timepoints; iris/ciliary body, cornea, retina; read-out: Plasma concentration lower than concentration in target ocular tissues
Procedure: The experimental animals were normotensive male New Zealand White rabbits. A single drop (35 μl) of a compound, (302s), at a concentration of 0.126% (corrected for oxalate salt weight) was administered to each eye by pipette. At 0.25, 0.5, 1, 2, 4, 8, and 24 hours, plasma, aqueous humor, vitreous humor, cornea, iris-ciliary body, retina, and choroid were collected (2 rabbits/timepoint, or 4 eyes/timepoint). Approximately 0.5 ml of blood was collected and placed in EDTA tubes. […]
parameter.measured: Kp

stdin: Answer with the recorded Kp of C[C@H](CN1[C@@H]2CC[C@H]1C[C@@H](OCC1CC1)C2)Cn1ncc2ccccc21 [Compound 302S] only.
stdout: > 100

* * *

Biological target: UniProt P20309
Assay: R-SAT (Receptor Selection and Amplification) assay, M3
Format: cell-based
Conditions: read-out: M3 EFF % AVG
// reported Emax for each item listed
Return type: number; implicit unit %.

Solved entries:
C[C@H](CN1[C@@H]2CC[C@H]1C[C@@H](OCC1CC1)C2)Cn1ncc2ccc(CO)cc21 [Compound 310s]	6
COCC[C@H]1C[C@H]2CC[C@@H](C1)N2C[C@@H](C)Cn1ncc2ccccc21 [Compound 303S]	8
C[C@H](CN1[C@@H]2CC[C@H]1C[C@@H](OC1CCCC1)C2)Cn1ncc2ccccc21 [Compound 314s]	8
CCOCC[C@H]1C[C@H]2CC[C@@H](C1)N2C[C@@H](C)Cn1ncc2ccccc21	-2

stdin: Recall the reported Emax of `C[C@H](CN1[C@@H]2CC[C@H]1C[C@@H](OCC1CCC1)C2)Cn1ncc2ccccc21` on UniProt P20309 and write it down.
stdout: 5

* * *

Biological target: human M2 muscarinic acetylcholine receptor (Homo sapiens (Human), UniProt P08172)
Assay: R-SAT (Receptor Selection and Amplification) assay, M2
Assay type: cell-based
Settings: R-SAT, NIH-3T3 cells
parameter.measured: M2 PEC50 AVG
Response field accepts a number only; no unit should be typed.

stdin: Answer with the recorded M2 PEC50 AVG of `C[C@H](CN1[C@@H]2CC[C@H]1C[C@@H](OCC1CC1)C2)Cn1ncc2ccc(F)cc21` only.
stdout: 7.7

stdin: Answer with the recorded M2 PEC50 AVG of `Cc1ccc2c(cnn2C[C@H](C)CN2[C@@H]3CC[C@H]2C[C@@H](OCC2CC2)C3)c1` only.
stdout: 8.1

stdin: Answer with the recorded M2 PEC50 AVG of C#CCO[C@H]1C[C@H]2CC[C@@H](C1)N2C[C@@H](C)Cn1ncc2ccc(OC)cc21 [Compound 322s] only.
stdout: 7.1

stdin: Answer with the recorded M2 PEC50 AVG of `CCOCC[C@H]1C[C@H]2CC[C@@H](C1)N2C[C@@H](C)Cn1ncc2ccc(C)cc21` only.
stdout: 7.9

stdin: Answer with the recorded M2 PEC50 AVG of `Cc1cccc2cnn(C[C@H](C)CN3[C@@H]4CC[C@H]3C[C@@H](OCC3CC3)C4)c12` only.
stdout: 6.9

stdin: Answer with the recorded M2 PEC50 AVG of `COCC[C@H]1C[C@H]2CC[C@@H](C1)N2C[C@@H](C)Cn1ncc2ccc(OC)cc21` only.
stdout: 7.3

stdin: Answer with the recorded M2 PEC50 AVG of `CCOCC[C@H]1C[C@H]2CC[C@@H](C1)N2C[C@@H](C)Cn1ncc2ccccc21` only.
stdout: 7.8

stdin: Answer with the recorded M2 PEC50 AVG of `Cc1nn(C[C@H](C)CN2[C@@H]3CC[C@H]2C[C@@H](OCC2CC2)C3)c2ccccc12` only.
stdout: 6.6

stdin: Answer with the recorded M2 PEC50 AVG of C[C@H](CN1[C@@H]2CC[C@H]1C[C@@H](OCC1CC1)C2)Cn1ncc2ccccc21 [Compound 302S] only.
stdout: 7.6
